- Test system: 186277-243-T-J2-PDC multi-cell spheroid viability;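 also: spheroids exposed to compounds for seven days before viability reading; 100% = DMSO vehicle control viability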
- procedure.details: Anticancer human tumor 186277-243-T-J2-PDC patient-derived colon adenocarcinoma cell line growth inhibition [PI3K]
- experimental.conditions: second compound 0.1 µM; first compound 0.001 µM; stronger effect = lower value
Recorded viability, T/C, one value per entry.

Some entries whose results are on file:
compound: CC(C)n1nc(-c2ccc3oc(N)nc3c2)c2c(N)ncnc21 + COc1c(OCCCN2CCOCC2)ccc2c3n(c(=NC(=O)c4cnc(N)nc4)nc12)CCN3
viability, T/C: 17.5%
--
compound: CC(=O)c1c(C)c2cnc(Nc3ccc(N4CCNCC4)cn3)nc2n(C2CCCC2)c1=O + Cc1nc(NC(=O)N2CCCC2C(N)=O)sc1-c1ccnc(C(C)(C)C(F)(F)F)c1
viability, T/C: 106%
--
compound: Cn1ncnc1[C@H]1c2n[nH]c(=O)c3cc(F)cc(c23)N[C@@H]1c1ccc(F)cc1 + Cc1nc(NC(=O)N2CCCC2C(N)=O)sc1-c1ccnc(C(C)(C)C(F)(F)F)c1
viability, T/C: 99.6%
--
compound: CC(=O)c1c(C)c2cnc(Nc3ccc(N4CCNCC4)cn3)nc2n(C2CCCC2)c1=O + CC(Nc1ncnc2nc[nH]c12)c1cc2cccc(Cl)c2c(=O)n1-c1ccccc1
viability, T/C: 91.5%
--
compound: CC(=O)c1c(C)c2cnc(Nc3ccc(N4CCNCC4)cn3)nc2n(C2CCCC2)c1=O + COc1c(OCCCN2CCOCC2)ccc2c3n(c(=NC(=O)c4cnc(N)nc4)nc12)CCN3
viability, T/C: 14.4%

Query compound follows.
**Query** Report viability, T/C for Cn1ncnc1[C@H]1c2n[nH]c(=O)c3cc(F)cc(c23)N[C@@H]1c1ccc(F)cc1 + CC(Nc1ccc2c(c1)OCCn1cc(N3C(=O)OCC3C(F)F)nc1-2)C(N)=O please.
**Result** 105%

Source: PubChem BioAssay AID1963983
